compounds and their reported pIC50
# Tgt: K-Ras G12C (Homo sapiens (Human), UniProt P01116+P62937, G12C)
# Sequence (P01116-2 other isoform, or with tags, fused parts or gaps G12C): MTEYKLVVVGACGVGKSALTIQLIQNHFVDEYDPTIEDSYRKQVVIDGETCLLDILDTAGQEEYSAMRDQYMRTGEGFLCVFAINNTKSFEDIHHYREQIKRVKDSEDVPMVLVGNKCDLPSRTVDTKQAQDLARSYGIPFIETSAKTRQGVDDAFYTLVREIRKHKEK
# Sequence (P62937 whole entry): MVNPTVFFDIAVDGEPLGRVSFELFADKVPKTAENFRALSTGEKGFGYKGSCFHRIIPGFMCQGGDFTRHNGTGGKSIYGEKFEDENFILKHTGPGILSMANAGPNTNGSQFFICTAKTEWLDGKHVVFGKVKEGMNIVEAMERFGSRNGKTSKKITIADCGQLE
# Experiment Summary: Ras-Raf (BRAF RBD) disruption / FRET / MOA assay, KRAS G12C
# Format: biochemical
# Test Parameters: KRAS G12C; Ras-Raf disruption/FRET/MOA assay; read-out: IC50* KRAS G12C FRET data
# Description: The purpose of this biochemical assay is to measure the ability of test compounds to facilitate ternary complex formation between a nucleotide-loaded Ras isoform and cyclophilin A; the resulting ternary complex disrupts binding to a BRAF^RBD construct, inhibiting Ras signaling through a RAF effector. Compound is present in plate wells as a 10-point 3-fold dilution series starting at a final concentration of 30 μM. […]
pIC50: −log10 of the molar value.

[
  {
    "Compound": "CCn1c(-c2cccnc2[C@H](C)OC)c2c3cc(ccc31)-c1csc(n1)C[C@H](NC(=O)[C@H](C(C)C)N(C)C(=O)N1CCC3(CC1)CN(C(=O)/C=C/CN1CCOCC1)C3)C(=O)N1CCC[C@H](N1)C(=O)OCC(C)(C)C2 (atropisomer, axis not shown)",
    "Tgt": "K-Ras G12C (Homo sapiens (Human), UniProt P01116+P62937, G12C)",
    "pIC50": "7.00 to 8.00"
  },
  {
    "Compound": "C=CC(=O)N1CC[C@H](C(=O)N(C)[C@H](C(=O)N[C@H]2Cc3cccc(c3)-c3ccc4c(c3)c(c(-c3cccnc3[C@H](C)OC)n4CC)CC(C)(C)COC(=O)[C@@H]3CCCN(N3)C2=O)C(C)C(F)(F)F)C1 (some centres unmarked)",
    "Tgt": "K-Ras G12C (Homo sapiens (Human), UniProt P01116+P62937, G12C)",
    "pIC50": "6.00 to 7.00"
  },
  {
    "Compound": "CCn1c(-c2cccnc2[C@H](C)OC)c2c3cc(ccc31)-c1cccc(c1)C[C@H](NC(=O)[C@H](C(C)C)N(C)C(=O)[C@H]1CCN(C(=O)/C=C/C(F)F)C1)C(=O)N1CCC[C@H](N1)C(=O)OCC(C)(C)C2 (atropisomer, axis not shown)",
    "Tgt": "K-Ras G12C (Homo sapiens (Human), UniProt P01116+P62937, G12C)",
    "pIC50": "7.00 to 8.00"
  },
  {
    "Compound": "CCn1c(-c2cccnc2[C@H](C)OC)c2c3cc(ccc31)-c1csc(n1)C[C@H](NC(=O)[C@H](F)COC1CN(C(=O)C#CC(C)(C)N(C)C)C1)C(=O)N1CCC[C@H](N1)C(=O)OCC(C)(C)C2 (atropisomer, axis not shown)",
    "Tgt": "K-Ras G12C (Homo sapiens (Human), UniProt P01116+P62937, G12C)",
    "pIC50": "> 8.00"
  },
  {
    "Compound": "CCn1c(-c2cccnc2COC)c2c3cc(ccc31)-c1cc(O)cc(c1)C[C@H](NC(=O)[C@H](C(C)C)N(C)C(=O)[C@H]1CCN(C(=O)C#CC3(N(C)C)COC3)C1)C(=O)N1CCC[C@H](N1)C(=O)OCC(C)(C)C2",
    "Tgt": "K-Ras G12C (Homo sapiens (Human), UniProt P01116+P62937, G12C)",
    "pIC50": "7.00 to 8.00"
  },
  {
    "Compound": "CCn1c(-c2cccnc2[C@H](C)OC)c2c3cc(ccc31)-c1cc(cc(C(F)F)c1)C[C@H](NC(=O)C(COC1CN(C(=O)C#CC(C)(C)N(C)C)C1)C(C)C)C(=O)N1CCC[C@H](N1)C(=O)OCC(C)(C)C2 (mixture of isomers)",
    "Tgt": "K-Ras G12C (Homo sapiens (Human), UniProt P01116+P62937, G12C)",
    "pIC50": "6.00 to 7.00"
  },
  {
    "Compound": "C=CC(=O)N1CC[C@H](C(=O)N(C)[C@H](C(=O)N[C@H]2Cc3cc(cc(C(F)F)c3)-c3ccc4c(c3)c(c(-c3cccnc3[C@H](C)OC)n4CC(F)(F)F)CC(C)(C)COC(=O)[C@@H]3CCCN(N3)C2=O)C(C)C)C1 (atropisomer, axis not shown)",
    "Tgt": "K-Ras G12C (Homo sapiens (Human), UniProt P01116+P62937, G12C)",
    "pIC50": "6.00 to 7.00"
  },
  {
    "Compound": "CCn1c(-c2cccnc2[C@H](C)OC)c2c3cc(ccc31)-c1cc(O)cc(c1)C[C@H](NC(=O)[C@H](C(C)C)N(C)C(=O)[C@H]1CCN(C(=O)C#CCN3[C@H](C)COC[C@@H]3C)C1)C(=O)N1CCC[C@H](N1)C(=O)OCC(C)(C)C2 (atropisomer, axis not shown)",
    "Tgt": "K-Ras G12C (Homo sapiens (Human), UniProt P01116+P62937, G12C)",
    "pIC50": "> 8.00"
  }
]
